Ref: patent US8168651B2

Listed here: items and their measured inhibition at 10 µM.
target: recombinant human CK2 (Homo sapiens (Human), UniProt P68400); assay: CK2 assay (cell-free, 33P-ATP filter plate); assay type: biochemical; conditions: 10 uM; read-out: CK2 % inhib @ 10 uM
Sequence (P68400 whole entry): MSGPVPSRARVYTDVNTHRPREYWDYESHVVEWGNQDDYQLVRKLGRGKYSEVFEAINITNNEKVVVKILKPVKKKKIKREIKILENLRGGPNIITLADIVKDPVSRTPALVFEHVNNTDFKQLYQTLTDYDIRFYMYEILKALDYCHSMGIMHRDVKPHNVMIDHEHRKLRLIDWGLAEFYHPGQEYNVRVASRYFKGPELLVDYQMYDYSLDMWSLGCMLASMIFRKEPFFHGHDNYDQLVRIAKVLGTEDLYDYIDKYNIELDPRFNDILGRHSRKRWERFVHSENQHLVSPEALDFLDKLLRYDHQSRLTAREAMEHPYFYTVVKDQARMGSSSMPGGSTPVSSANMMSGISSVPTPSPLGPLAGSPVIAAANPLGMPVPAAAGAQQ
Sequence (P67870 whole entry partner): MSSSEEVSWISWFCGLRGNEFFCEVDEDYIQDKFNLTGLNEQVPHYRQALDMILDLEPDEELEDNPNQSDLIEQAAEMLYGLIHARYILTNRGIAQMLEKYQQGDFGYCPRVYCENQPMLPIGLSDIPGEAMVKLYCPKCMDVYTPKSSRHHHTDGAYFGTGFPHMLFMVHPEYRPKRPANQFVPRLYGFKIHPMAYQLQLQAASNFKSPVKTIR
Your answer should be a plain number; it is taken to be in %.

Structure smiles string: N#Cc1ccc2c(c1)[nH]c(=O)c1ccsc12
Units: %
inhibition at 10 µM: -5
--
Structure smiles string: COC(=O)CNC(=O)c1ccc2c(c1)[nH]c(=O)c1ccsc12
Units: %
inhibition at 10 µM: 10

q: State the recorded inhibition at 10 µM for this entry: `O=c1[nH]c2ccccc2c2sccc12`
a: 0

q: State the recorded inhibition at 10 µM for this entry: `COc1ccc(CNC(=O)c2ccc3c(c2)[nH]c(=O)c2ccsc23)cc1`
a: 1

q: State the recorded inhibition at 10 µM for this entry: `CC(=O)N1CCN(C(=O)c2ccc3c(c2)[nH]c(=O)c2ccsc23)CC1`
a: 7

q: State the recorded inhibition at 10 µM for this entry: `O=C(Nc1cccnc1)c1ccc2c(c1)[nH]c(=O)c1ccsc12`
a: -9

----------
test system: Jurkat; assay: Cell proliferation modulatory activity, Jurkat; type: cell-based; details: Homo sapiens
Lab note - cut at 2 µM for IC50: True if strictly below, False if not.

Please review the following examples before continuing.
Compound: O=C(O)c1ccc2c(c1)nc(NC1CC1)c1nc(NCC3CCCO3)ncc12 (stereo not shown)
Assigned category: False
//
Compound: C#Cc1cccc(Nc2nc3cc(C(=O)N(C)CCN(C)C)ccc3c3cncnc23)c1
Assigned category: False

q: Take the compound `COc1cccc(Nc2nc3cc(C(=O)O)ccc3c3cnc(NC4CC4)nc23)c1` and say whether its IC50 is less than 2 µM.
a: False

----------
biological target: recombinant human CK2 (Homo sapiens (Human)); experiment: CK2 assay (cell-free, 33P-ATP filter plate); assay type: biochemical; details: 500 nM compound, cell-free assay; read-out: CK2: % inh 500 nM
Outcome measure: inhibition at 0.5 µM (%)
Your answer should be a plain number; it is taken to be in %.

Past entries and their recorded results:
Compound: COC(=O)c1ccc2c(c1)nc(NCCCOC(C)C)c1ccncc12
inhibition at 0.5 µM, %: 90.9
--
Compound: COC(C)(C)CNc1nc2cc(C#N)ccc2c2sccc12
inhibition at 0.5 µM, %: -17.1
--
Compound: CC(C)(C)OC(=O)N1CCCC1CNc1nc2cc(-c3nnn[nH]3)ccc2c2sccc12 (centres unmarked)
inhibition at 0.5 µM, %: 27
--
Compound: FC(F)(F)c1cccc(Nc2nc3cc(-c4nnn[nH]4)ccc3c3ccsc23)c1
inhibition at 0.5 µM, %: 17.4
--
Compound: CN(C)CCNc1nc2cc(-c3nnn[nH]3)ccc2c2cscc12
inhibition at 0.5 µM, %: 66
--
Compound: c1cc2c(NCCN3CCCCC3)nc3cc(-c4nnn[nH]4)ccc3c2s1
inhibition at 0.5 µM, %: 37.1
--
Compound: CNc1ccc(C#N)cc1Nc1nc2cc(C(=O)O)ccc2c2cnccc12
inhibition at 0.5 µM, %: 65
--
Compound: N#Cc1ccc2c(c1)nc(Cl)c1sccc12
inhibition at 0.5 µM, %: -11.5
--
Compound: CN(c1ccccc1)c1nc2cc(C(=O)O)ccc2c2ccncc12
inhibition at 0.5 µM, %: 15.3
--
Compound: COCCNc1nc2cc(C#N)ccc2c2sccc12
inhibition at 0.5 µM, %: -18

q: State the recorded inhibition at 0.5 µM for this entry: `Cc1cc2c(cc1OCc1ccccc1)[nH]c(=O)c1ccncc12`
a: -7.77

q: State the recorded inhibition at 0.5 µM for this entry: `O=C(O)c1ccc2c(c1)nc(NCc1ccccn1)c1ccncc12`
a: 96.6

q: State the recorded inhibition at 0.5 µM for this entry: `N#Cc1ccc2c(c1)nc(Cl)c1cscc12`
a: -6.52

q: State the recorded inhibition at 0.5 µM for this entry: CN1CCC(N(C)c2nc3cc(C#N)ccc3c3sccc23)C1 (centres unmarked)
a: -14.1

q: State the recorded inhibition at 0.5 µM for this entry: `N#Cc1ccc2c(c1)nc(N1CCC(N3CCOCC3)CC1)c1ccsc12`
a: -34.7

q: State the recorded inhibition at 0.5 µM for this entry: `O=C(O)c1ccc2c(c1)nc(Nc1cccc(F)c1)c1nccnc12`
a: 88.7
